Where these numbers come from: patent US10227348B2

I'd appreciate it if you could supply Required concentration to achieve a reduction by ≥3 log10 stages (decrease by 99.9%) values for the items below.
tested on: Escherichia coli (ATCC number: 25922); assay: Phototoxicity test (photodynamic inactivation, CFU/ml by Miles and Misra); assay type: cell-based; conditions: E. coli; irradiation at 10.5 J/cm^2 (50 mW/cm^2, 210 sec, 390-500 nm); incubation 10 min or 30 min; CFU/ml after 24 h

Request: Bench note: what Required concentration to achieve a reduction by ≥3 log10 stages (decrease by 99.9%) did Cc1cc2nc3c(=O)[nH]c(=O)nc-3n(CCOCCOCCN)c2cc1C show?
Result: >100^(*^) μM

Parameters: items (list). Returns: Required concentration to achieve a reduction by ≥3 log10 stages (decrease by 99.9%) for each item.
1. Cc1cc2nc3c(=O)[nH]c(=O)nc-3n(CCN)c2cc1C
2. COCCn1c2nc(=O)n(CCN)c(=O)c-2nc2cc(C)c(C)cc21
3. COCCn1c2nc(=O)n(CCNC(=N)N)c(=O)c-2nc2cc(C)c(C)cc21

Result:
1. 10 μM
2. >100^(*^) μM
3. >100^(*^) μM
